- SYSTEM UNDER TEST: T1, RBFOX1 RRM (Homo sapiens, UniProt Q9NWB1 109-208)
- T1 sequence: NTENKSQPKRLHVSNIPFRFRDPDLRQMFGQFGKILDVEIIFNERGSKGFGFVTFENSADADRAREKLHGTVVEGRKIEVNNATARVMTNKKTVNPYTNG
- ASSAY REMARKS: EMSA; HiTS-Eq, 1 nM pool, 10 min; buffer printed only for the single-RNA assays: 10 mM Tris pH 7.5, 150 mM NaCl, 3.4 mM EDTA, 0.001% NP-40, 30 C
- COND: tags: His6 N-terminal (pET28a); label: 5' 32P
Whole data set: some 16,000 sequences, median “ka relative to ugcaugu” near 0.0091, cut for the highest 2% near 0.032. Shown is part of a subset that was picked to be rich in the highest values.
Please go through the items and note down their binding signal.

INSERT INTO assay_data (binder, obs_value) VALUES
  ('GUAUGCC (DNA:RNA) RNA: GGGAGACCGGAAUUCAGAUUGUCCGUAUGCCUUAAAUCCCGUCGUAGCCACCA DNA 1: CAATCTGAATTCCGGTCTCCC DNA 2: TGGTGGCTACGACGGGATT', '0.0139 KA relative to UGCAUGU'),
  ('GCAUGCC (DNA:RNA) RNA: GGGAGACCGGAAUUCAGAUUGUCCGCAUGCCUUAAAUCCCGUCGUAGCCACCA DNA 1: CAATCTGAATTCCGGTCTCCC DNA 2: TGGTGGCTACGACGGGATT', '0.829 KA relative to UGCAUGU'),
  ('CCAUGCC (DNA:RNA) RNA: GGGAGACCGGAAUUCAGAUUGUCCCCAUGCCUUAAAUCCCGUCGUAGCCACCA DNA 1: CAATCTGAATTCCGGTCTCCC DNA 2: TGGTGGCTACGACGGGATT', '0.00772 KA relative to UGCAUGU');

Next binder, binding signal to be filled in.
Prompt: What measured binding signal goes with CUGGGCC (DNA:RNA) RNA: GGGAGACCGGAAUUCAGAUUGUCCCUGGGCCUUAAAUCCCGUCGUAGCCACCA DNA 1: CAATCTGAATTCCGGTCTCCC DNA 2: TGGTGGCTACGACGGGATT ?
Response: 0.0274 KA relative to UGCAUGU
